Assay: Cell-based activity under Prompt Conditions: Cell-based activity under Prompt Conditions. Rat or human NHE3-mediated Na+-dependent H+ antiport was measured using a modification of the pH sensitive dye method originally reported by Paradiso (PNAS USA. 81:7436-7440, 1984). Opossum kidney (OK) cells were obtained from the ATCC and propagated per their instructions. The rat NHE3 gene (GenBank M85300) or the human NHE3 gene (GenBank NM_004174.1) was introduced into OK cells via electroporation, and cells were seeded into 96 well plates and grown overnight. Medium was aspirated from the wells, cells were washed twice with NaCl-HEPES buffer (100 mM NaCl, 50 mM HEPES, 10 mM glucose, 5 mM KCl, 2 mM CaCl2, 1 mM MgCl2, pH 7.4), then incubated for 30 min at room temperature with NH4Cl-HEPES buffer (20 mM NH4Cl, 80 mM NaCl, 50 mM HEPES, 5 mM KCl, 2 mM CaCl2, 1 mM MgCl2, pH 7.4) containing 5 μM bis(acetoxymethyl) 3,3′-(3′,6′-bis(acetoxymethoxy)-5-((acetoxymethoxy)carbonyl)-3-oxo-3H-spiro[isobenzofuran-1,9′-xanthene]-2′,7′-diyl)dipropanoate (BCECF-AM).Cells were washed twice with Ammonium free, Na+-free HEPES (100 mM choline, 50 mM HEPES, 10 mM glucose, 5 mM KCl, 2 mM CaCl2, 1 mM MgCl2, pH 7.4) and incubated in the same buffer for 10 minutes at room temperature to lower intracellular pH. […] Initial rates were plotted as the average 2 or more replicates, and pIC50 values were estimated using GraphPad Prism.
In this section we review reported log10(IC50) values for a set of compounds.
RECORDED ENDPOINT: log10(IC50) (log10 of the value in nM)

# COMPOUND, log10(IC50)
measured = [
    ("CN1Cc2c(Cl)cc(Cl)cc2[C@H](c2cccc(S(=O)(=O)NCCOCCOCCNC(=O)NCCC(N)(CCNC(=O)NCCOCCOCCNS(=O)(=O)c3cccc([C@@H]4CN(C)Cc5c(Cl)cc(Cl)cc54)c3)CCNC(=O)NCCOCCOCCNS(=O)(=O)c3cccc([C@@H]4CN(C)Cc5c(Cl)cc(Cl)cc54)c3)c2)C1", 1.65),
    ("CN1Cc2c(Cl)cc(Cl)cc2[C@H](c2cccc(S(=O)(=O)NCCOCCOCCNC(=O)CCC(CCC(=O)NCCOCCOCCNS(=O)(=O)c3cccc([C@@H]4CN(C)Cc5c(Cl)cc(Cl)cc54)c3)(CCC(=O)NCCOCCOCCNS(=O)(=O)c3cccc([C@@H]4CN(C)Cc5c(Cl)cc(Cl)cc54)c3)NC(N)=O)c2)C1", 2.50),
    ("C/C(=C\\c1cc(F)c(Oc2ccc(S(=O)(=O)NCCOCCOCCOCCNC(=O)CN(CCN(CC(=O)O)CC(=O)NCCOCCOCCOCCNS(=O)(=O)c3ccc(Oc4c(F)cc(/C=C(\\C)C(=O)N=C(N)N)cc4F)cc3)CC(=O)O)cc2)c(F)c1)C(=O)N=C(N)N", 1.50),
    ("CN1Cc2c(Cl)cc(Cl)cc2[C@H](c2cccc(S(=O)(=O)NCCOCCOCCNC(=O)NCCCC(CCCNC(=O)NCCOCCOCCNS(=O)(=O)c3cccc([C@@H]4CN(C)Cc5c(Cl)cc(Cl)cc54)c3)(CCCNC(=O)NCCOCCOCCNS(=O)(=O)c3cccc([C@@H]4CN(C)Cc5c(Cl)cc(Cl)cc54)c3)NC(=O)COCC(=O)O)c2)C1", -0.20),
    ("NCCOCCOCCOc1ccc(-c2nc(N=C(N)N)nc3ccc(Cl)cc23)cc1", 2.05),
    ("CN1Cc2c(Cl)cc(Cl)cc2C(c2cccc(S(N)(=O)=O)c2)C1 (stereo unspecified)", 2.40),
    ("CCOCCOCCOCCNC(=O)CN(C)CC(=O)NCCOCCOCCOCCNS(=O)(=O)c1ccc(O[C@H]2c3ccccc3C[C@@H]2N2CCCCC2)cc1", 1.65),
    ("N[C@@H]1CCCN([C@H]2Cc3c(Cl)cc(Cl)cc3[C@@H]2Oc2ccc(S(=O)(=O)NCCOCCOCCNC(=O)NCCCCNC(=O)NCCOCCOCCNS(=O)(=O)c3ccc(O[C@H]4c5cc(Cl)cc(Cl)c5C[C@@H]4N4CCC[C@@H](N)C4)cc3)cc2)C1", 1.60),
    ("CN1Cc2c(Cl)cc(Cl)cc2[C@H](c2cccc(S(=O)(=O)NCCOCCOCCN(C)C(=O)CCC(CCC(=O)N(C)CCOCCOCCNS(=O)(=O)c3cccc([C@@H]4CN(C)Cc5c(Cl)cc(Cl)cc54)c3)(CCC(=O)N(C)CCOCCOCCNS(=O)(=O)c3cccc([C@@H]4CN(C)Cc5c(Cl)cc(Cl)cc54)c3)NC(=O)COCC(=O)O)c2)C1", 1.30),
    ("CN1Cc2c(Cl)cc(Cl)cc2[C@H](c2cccc(S(=O)(=O)NCCOCCOCCNC(=O)CCC(CCC(=O)NCCOCCOCCNS(=O)(=O)c3cccc([C@@H]4CN(C)Cc5c(Cl)cc(Cl)cc54)c3)(CCC(=O)NCCOCCOCCNS(=O)(=O)c3cccc([C@@H]4CN(C)Cc5c(Cl)cc(Cl)cc54)c3)NC(=O)N(C)C)c2)C1", 3.40),
    ("CN1Cc2c(Cl)cc(Cl)cc2C(c2cccc(S(=O)(=O)NCCOCCOCCNC(=O)CCC(CCC(=O)NCCOCCOCCNS(=O)(=O)c3cccc([C@@H]4CN(C)Cc5c(Cl)cc(Cl)cc54)c3)(CCC(=O)NCCOCCOCCNS(=O)(=O)c3cccc([C@@H]4CN(C)Cc5c(Cl)cc(Cl)cc54)c3)N(C)C)c2)C1 (stereo partly specified)", 1.83),
    ("CN1Cc2c(Cl)cc(Cl)cc2[C@H](c2cccc(S(=O)(=O)NCCOCCOCCN(C)C(=O)CCC(N)(CCC(=O)N(C)CCOCCOCCNS(=O)(=O)c3cccc([C@@H]4CN(C)Cc5c(Cl)cc(Cl)cc54)c3)CCC(=O)N(C)CCOCCOCCNS(=O)(=O)c3cccc([C@@H]4CN(C)Cc5c(Cl)cc(Cl)cc54)c3)c2)C1", 1.20),
    ("CCC(=O)NCCOCCOCCOCCNS(=O)(=O)c1cccc([C@@H]2CN(C)Cc3c(Cl)cc(Cl)cc32)c1", 2.30),
]
